B1: SNAP91 (parent)
chain: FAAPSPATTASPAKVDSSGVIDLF

- Variants of: B1
- test-description: protein stability index of a GFP-peptide fusion (GPS, HEK-293T) (PSI 1-6); higher = more stable;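 also: lentivirally expressed fusions sorted by FACS into six bins by GFP to DsRed ratio, PSI derived from sequencing read proportions per bin multiplied by bin number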
- condition-summary: c terminus: a fixed tail appended
For each of the variants below, state its protein stability index.
Numbers only.

Some solved entries appear below for comparison.
variant_notation=F1I measured_value=3.47
variant_notation=S17D measured_value=2.55
variant_notation=S11T measured_value=2.48

Go through the list and state protein stability index for each entry.
1. D16S
2. G19Y

1.91
1.58

Go through the list and state protein stability index for each entry.
1. S11Q
2. F24R
3. P4T
4. A3C

1: 2.56; 2: 3.56; 3: 1.67; 4: 1.99

Go through the list and state protein stability index for each entry.
1. D16M
2. P12S
3. K14F

1.92
2.32
1.86

Go through the list and state protein stability index for each entry.
1. K14P
2. S11W
3. T8M
4. A13L
5. A2P
6. K14N
7. T9R

1. 2.7
2. 1.33
3. 2.7
4. 2.43
5. 3.03
6. 2.52
7. 2.42
